Let's look at some binders and their measured koff.
- system: T1, cynomolgus monkey IL-33 expressed with a C-terminal hexahistidine tag (cynomolgus monkey)
- T1 construct: also called MfIL-33-6His; Mf-IL-33-6His
- T1 chain: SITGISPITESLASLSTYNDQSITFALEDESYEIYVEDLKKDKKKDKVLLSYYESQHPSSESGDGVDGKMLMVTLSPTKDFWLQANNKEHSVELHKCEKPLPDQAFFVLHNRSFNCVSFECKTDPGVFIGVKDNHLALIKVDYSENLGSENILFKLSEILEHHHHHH
- assay text: SPR 25C, pH6.0 chase, mAb captured
Value expressed in s⁻¹; do not type the unit.

H4H9659P (antibody, human IgG4, V domains shown, Human IgG4 Fc (H4H)) VH: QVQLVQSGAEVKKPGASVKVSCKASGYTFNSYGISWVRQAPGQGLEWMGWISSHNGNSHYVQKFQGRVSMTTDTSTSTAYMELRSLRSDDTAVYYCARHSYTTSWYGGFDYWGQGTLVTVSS VL: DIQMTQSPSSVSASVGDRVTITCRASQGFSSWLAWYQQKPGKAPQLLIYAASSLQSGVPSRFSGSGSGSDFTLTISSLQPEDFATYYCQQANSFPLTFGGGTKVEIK = 0.000123

Proceeding to the next binder to report its koff.
input: I would be grateful if you could share the reported koff for H4H9633P (antibody, human IgG4, V domains shown, Human IgG4 Fc (H4H)) VH: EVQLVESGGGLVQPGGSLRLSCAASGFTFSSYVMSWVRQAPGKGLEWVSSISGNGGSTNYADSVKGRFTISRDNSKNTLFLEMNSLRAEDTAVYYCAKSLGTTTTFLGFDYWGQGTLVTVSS VL: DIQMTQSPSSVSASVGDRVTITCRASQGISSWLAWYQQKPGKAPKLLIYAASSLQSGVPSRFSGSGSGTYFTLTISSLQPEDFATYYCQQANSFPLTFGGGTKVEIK .
output: 0.00287

Every entry's value here was drawn from patent US20160362487A1.
